For each of the compounds below, state its pIC50.
# Target of assay: MCH receptor (Homo sapiens, UniProt Q99705)
# Measurement description: High throughput functional screening FLIPR/FDSS6000: inhibition of MCH-evoked intracellular Ca2+ changes
# Assay type: cell-based
# Cond: class by percent of control at 10^−7 M or by IC50; read-out: class
pIC50: −log10 of the molar value.

Guide cases for pIC50, answers given:
[[record]]
compound = "CN(C)c1nc(N[C@H]2CC[C@@H](CNC(=O)C(O)c3ccc(Br)cc3)CC2)nc2ccccc12 (relative stereo) [Example 1098]"
target_of_assay = "MCH receptor (Homo sapiens, UniProt Q99705)"
reported = "< 6.70"

[[record]]
compound = "CN(C)c1nc(N[C@H]2CC[C@@H](CNC(=O)c3cc(F)cc(F)c3)C2)nc2ccccc12 [Example 1130]"
target_of_assay = "MCH receptor (Homo sapiens, UniProt Q99705)"
reported = "> 7.30"


I have 7 compounds here; please give me pIC50 for each one.
1. COc1cc(Oc2ncccc2C(=O)N[C@H]2CC[C@@H](Nc3nc(N(C)C)c4ccccc4n3)CC2)cc(OC)c1OC [Example 1041]
2. CN(C)c1nc(N[C@H]2CC[C@@H](NC(=O)CNc3cccc(F)c3)CC2)nc2ccccc12 [Example 1087]
3. CN(C)c1nc(N[C@H]2CC[C@@H](CNC(=O)Nc3cccc(Cl)c3)CC2)nc2ccccc12 [Example 1022]
4. CN(C)c1nc(N[C@H]2CC[C@@H](CNC(=O)C(O)c3c(F)cccc3F)CC2)nc2ccccc12 (relative stereo) [Example 1092]
5. COc1ccc(C(O)C(=O)NC[C@H]2CC[C@@H](Nc3nc(N(C)C)c4ccccc4n3)CC2)cc1 (relative stereo) [Example 1096]
6. CN(C)c1nc(N[C@H]2CC[C@@H](C(=O)NCc3cccc(F)c3)CC2)nc2ccccc12 [Example 1157]
7. Cc1cccc(CNC(=O)[C@H]2CC[C@@H](Nc3nc(N(C)C)c4ccccc4n3)CC2)c1 [Example 1165]

Response line:
1: > 7.30; 2: > 7.30; 3: 6.70 to 7.30; 4: < 6.70; 5: 6.70 to 7.30; 6: > 7.30; 7: > 7.30

I have 2 compounds here; please give me pIC50 for each one.
1. CN(C)c1nc(N[C@H]2CC[C@@H](NC(=O)CNc3ccccc3)CC2)nc2ccccc12 [Example 1085]
2. COc1cccc([C@@H](C)NC(=O)[C@H]2CC[C@@H](Nc3nc(N(C)C)c4ccccc4n3)CC2)c1 [Example 1137]

Response line:
1. > 7.30
2. > 7.30

I have 3 compounds here; please give me pIC50 for each one.
1. CN(C)c1nc(N[C@H]2CC[C@@H](CNC(=O)C(O)c3cccc(F)c3F)CC2)nc2ccccc12 (relative stereo) [Example 1093]
2. CN(C)c1nc(N[C@H]2CC[C@@H](NC(=O)[C@H](O)c3cccc(Cl)c3)CC2)nc2ccccc12 [Example 1111]
3. CN(C)c1nc(N[C@H]2CC[C@@H](C(=O)NCc3cccc(C(F)(F)F)c3)CC2)nc2cc(F)c(F)cc12 [Example 998]

Response line:
["< 6.70", "> 7.30", "> 7.30"]

* * *

For each of the compounds below, state its IC50.
# Target of assay: MCH receptor (Homo sapiens, UniProt Q99705)
# Measurement description: High throughput functional screening FLIPR/FDSS6000: inhibition of MCH-evoked intracellular Ca2+ changes
# Type: cell-based
# Cond: class by percent of control at 10^−7 M or by IC50; read-out: class

Guide cases for IC50, answers given:
[[record]]
compound = "CN(C)c1nc(N[C@H]2CC[C@@H](C(=O)NCc3ccccc3OC(F)F)CC2)nc2ccccc12"
reported = "< 50 nM"

[[record]]
compound = "CN(C)c1nc(N[C@H]2CC[C@@H](NCc3ccc(OC(F)(F)F)cc3)C2)nc2ccccc12"
reported = "> 200 nM"

[[record]]
compound = "CN(C)c1nc(N[C@H]2CC[C@@H](C(=O)NCc3cc(F)ccc3F)CC2)nc2ccccc12"
reported = "< 50 nM"

[[record]]
compound = "CN(C)c1nc(N[C@H]2CC[C@@H](NC(=O)Nc3c(Cl)cccc3Cl)CC2)nc2ccccc12"
reported = "> 200 nM"


I have 3 compounds here; please give me IC50 for each one.
1. CN(C)c1nc(NC[C@@H]2CC[C@H](NC(=O)c3ccc(F)cc3F)C2)nc2ccccc12
2. COc1cc(OC)cc(Oc2ccc(C(=O)N[C@H]3CC[C@@H](Nc4nc(N(C)C)c5ccccc5n4)CC3)cn2)c1
3. CN(C)c1nc(N[C@H]2CC[C@@H](CNC(=O)c3c(Cl)cc(Cl)cc3Cl)C2)nc2ccccc12

Response line:
> 200 nM
50 to 200 nM
< 50 nM

I have 7 compounds here; please give me IC50 for each one.
1. CN(C)c1nc(N[C@H]2CC[C@@H](C(=O)NCc3cc(Cl)cc(Cl)c3)CC2)nc2cc(F)c(F)cc12
2. CN(C)c1nc(N[C@H]2CC[C@@H](NC(=S)Nc3ccccc3Br)CC2)nc2ccccc12
3. CN(C)c1nc(N[C@H]2CC[C@@H](NC(=O)c3ccc(F)cc3)CC2)nc2cc(F)c(F)cc12
4. CN(C)c1nc(N[C@H]2CC[C@@H](NC(=O)Nc3ccccc3Cl)CC2)nc2ccccc12
5. CN(C)c1nc(N[C@H]2CC[C@@H](C(=O)NCc3cccc(I)c3)CC2)nc2cc(F)c(F)cc12
6. CN(C)c1nc(NC[C@@H]2CC[C@H](NC(=O)c3cccc(F)c3)C2)nc2ccccc12
7. Cc1ccc(C(=O)N[C@H]2CC[C@@H](Nc3nc(N(C)C)c4cc(F)c(F)cc4n3)CC2)cc1

Response line:
1. < 50 nM
2. 50 to 200 nM
3. < 50 nM
4. 50 to 200 nM
5. 50 to 200 nM
6. > 200 nM
7. < 50 nM
